Value source: PubChem BioAssay (NCI)

- Test system: HOP-62 NSCLC
- EXPERIMENT_SUMMARY: NCI-60 one-dose screen, 48 h
- TEST_SETTINGS: 10 µM unless noted
This is part of a sample that, as a whole, favours compounds with a hit. Of some 83,000 tested, about 20% had one in any assay. Activity calls are given as the source filed them. Rule for the calls: active = growth percent below 10; inactive = the rest.
Allowed answers: active, inactive

Some solved cases for reference:
COc1ccc(-c2cc(-c3ccc(Nc4nc(Nc5ccc(Cl)cc5)nc(Nc5ccc(Cl)cc5)n4)cc3)no2)cc1 = inactive
CO[C@]12C=C/C(=C(/C(=O)OCc3cccnc3)C(=O)CCCCCCCC[C@]3(OC)C=C/C(=C(/C(=O)OCc4cccnc4)C(=O)CCCCCCCC1)O3)O2 = active
O=c1c2cccc3c(N4CCOCC4)ccc(c32)c2nc3ccccc3n12 = inactive
COc1cc(C(=O)n2nc(NCCCc3ccccc3)c3cc(N)ccc32)cc(OC)c1OC = inactive
CN1CCN(Cc2ccc(NC(=O)c3cncc(C#Cc4cnc(N)c5ncccc45)c3)cc2Cl)CC1 = inactive

Could you please tell me the result logged for O=C(OCC(O)(CO)C(=O)NC12CC3CC(CC(C3)C1)C2)c1ccc(Cl)cc1 (configuration not stated) in this assay?
inactive

Could you please tell me the result logged for O=C(/C=C/C12c3ccccc3C(c3ccccc31)C1C(=O)NC(=O)C12)c1cccs1 (configuration not stated) in this assay?
inactive
